Values compiled from patent US7642231.

Let's look at some binders and their measured pKd.
# Test System: T1, 5HT2A receptor in human brain tissue (human, UniProt P28223 1-471)
# T1 construct: whole, on cells; Native receptor in human brain tissue, labeled with [3H]ketanserin; also called serotonin receptor
# T1 sequence (P28223 whole entry): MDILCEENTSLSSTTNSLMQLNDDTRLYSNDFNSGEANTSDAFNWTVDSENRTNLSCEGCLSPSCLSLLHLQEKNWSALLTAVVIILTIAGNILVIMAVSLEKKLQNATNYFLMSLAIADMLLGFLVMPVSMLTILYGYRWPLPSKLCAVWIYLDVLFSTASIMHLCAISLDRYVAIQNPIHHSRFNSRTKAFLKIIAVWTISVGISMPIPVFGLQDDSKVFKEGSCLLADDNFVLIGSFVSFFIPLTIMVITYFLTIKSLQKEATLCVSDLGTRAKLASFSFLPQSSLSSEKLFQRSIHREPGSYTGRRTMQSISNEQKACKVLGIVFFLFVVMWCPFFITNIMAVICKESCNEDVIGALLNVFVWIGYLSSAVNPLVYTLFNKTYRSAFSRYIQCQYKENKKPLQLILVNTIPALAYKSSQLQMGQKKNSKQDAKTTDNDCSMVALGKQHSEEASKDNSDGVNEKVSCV
# Assay Procedure: competition with [3H]ketanserin, human brain tissue
Square brackets hold non-standard residues; d marks the D form. Ends that are not written are not given here. Ala(indol-4-yl) = N[C@@H](Cc1cccc2[nH]ccc12)C(=O)O
// pKd: -log10(molar conc.)

RPYIL (Synthetic pentapeptide, residues 9-13 of neurotensin) [NT(9-13)]: 5.20

The recorded pKd for entry [dK]RP[Ala(indol-4-yl)]IL (NT(8-13) analog) [NT67L] equals 5.13

The recorded pKd for entry RRPYIL (Synthetic hexapeptide, residues 8-13 of neurotensin) [NT(8-13)] equals 5.36

The recorded pKd for entry RRP[Ala(indol-4-yl)]IL (NT(8-13) analog) [NT64L] equals 5.18

The recorded pKd for entry [dK]RPYIL (NT(8-13) analog) [NT2] equals 5.17
